Tested on: HEK293 FOP control reporter cell line
Measurement protocol: HEK293 FOP Assay (FOP control vector luciferase reporter)
Format: cell-based
Measurement setup: Homo sapiens; HEK293 FOP control reporter cells, 16 hours, luciferase; dilution series from 50 μM
Documented IC50 across a set of compounds
Your answer is read as µM, so omit the unit and give the number.

Solved entries:
Task item: Could you tell me which IC50 is on file for COC(=O)c1nc[nH]c1C(=O)Nc1ccc(NC(=O)c2ccc(F)cc2Cl)cc1 [Example 13] ?
Reply: 25

Task item: Could you tell me which IC50 is on file for CNC(=O)c1nc[nH]c1C(=O)Nc1ccc(NC(=O)c2ccc(OCCN3CCN(C)CC3)cc2Cl)cc1 [Example 28] ?
Reply: 42

Task item: Could you tell me which IC50 is on file for CCC(C)NC(=O)c1ncoc1C(=O)Nc1ccc(NC(=O)c2ccc(F)cc2Cl)cc1 (centres unmarked) [Example 7] ?
Reply: 45

Task item: Could you tell me which IC50 is on file for CNC(=O)c1nc[nH]c1C(=O)Nc1ccc(NC(=O)c2ccc(F)cc2Cl)c(C)c1 [Example 5] ?
Reply: 11

Task item: Could you tell me which IC50 is on file for CNC(=O)c1nc[nH]c1C(=O)Nc1ccc(NC(=O)c2ccccc2C)cc1 [Example 19] ?
Reply: 11

Next:
Task item: Could you tell me which IC50 is on file for O=C(Nc1ccc(NC(=O)c2[nH]cnc2C(=O)NCCN2CCCCC2)cc1)c1ccc(F)cc1Cl [Example 32] ?
Reply: 42

====

Assayed target: TNKS2 (Homo sapiens)
Measurement protocol: Modified TNKS2 Assay 2 (auto-parsylation, [3H]-NAD+ SPA)
Format: biochemical
Measurement setup: 6 nM TNKS2, 96 well
Procedure: The potency of selected compounds according to the invention was assessed applying an modified in vitro inhibition assay. Here, the TNKS2 catalyzed NAD^+-dependent ribosylation of the enzyme itself (auto-parsylation) was detected using [^3H]-NAD^+ as substrate and applying the scintillation proximity assay (SPA) method to detect tritium-labeled, parsylated TNKS2. The intensity of the readout signal is proportional to the incorporated [^3H]-NAD^+. […]
pIC50: −log10 of the molar value.
Label scheme for pIC50: lower than 7 is false (0), 7 and above is true (1).

Consider the worked cases shown below.
Task item: Please tell me: is the molecule O=C(Nc1ccc(NC(=O)c2[nH]cnc2C(=O)NCCC2CC2)cc1)c1ccc(F)cc1Cl at or over 7 in terms of pIC50?
Reply: false (0)

Task item: Please tell me: is the molecule CNC(=O)c1nc[nH]c1C(=O)Nc1ccc(NC(=O)c2cccnc2Cl)cc1 at or over 7 in terms of pIC50?
Reply: false (0)

Read the next record carefully.
Task item: Please tell me: is the molecule CCNC(=O)c1nc[nH]c1C(=O)Nc1ccc(NC(=O)c2ncccc2Cl)cc1 at or over 7 in terms of pIC50?
Reply: false (0)

====

Assayed target: UniProt:O95271
Sequence (O95271 whole entry): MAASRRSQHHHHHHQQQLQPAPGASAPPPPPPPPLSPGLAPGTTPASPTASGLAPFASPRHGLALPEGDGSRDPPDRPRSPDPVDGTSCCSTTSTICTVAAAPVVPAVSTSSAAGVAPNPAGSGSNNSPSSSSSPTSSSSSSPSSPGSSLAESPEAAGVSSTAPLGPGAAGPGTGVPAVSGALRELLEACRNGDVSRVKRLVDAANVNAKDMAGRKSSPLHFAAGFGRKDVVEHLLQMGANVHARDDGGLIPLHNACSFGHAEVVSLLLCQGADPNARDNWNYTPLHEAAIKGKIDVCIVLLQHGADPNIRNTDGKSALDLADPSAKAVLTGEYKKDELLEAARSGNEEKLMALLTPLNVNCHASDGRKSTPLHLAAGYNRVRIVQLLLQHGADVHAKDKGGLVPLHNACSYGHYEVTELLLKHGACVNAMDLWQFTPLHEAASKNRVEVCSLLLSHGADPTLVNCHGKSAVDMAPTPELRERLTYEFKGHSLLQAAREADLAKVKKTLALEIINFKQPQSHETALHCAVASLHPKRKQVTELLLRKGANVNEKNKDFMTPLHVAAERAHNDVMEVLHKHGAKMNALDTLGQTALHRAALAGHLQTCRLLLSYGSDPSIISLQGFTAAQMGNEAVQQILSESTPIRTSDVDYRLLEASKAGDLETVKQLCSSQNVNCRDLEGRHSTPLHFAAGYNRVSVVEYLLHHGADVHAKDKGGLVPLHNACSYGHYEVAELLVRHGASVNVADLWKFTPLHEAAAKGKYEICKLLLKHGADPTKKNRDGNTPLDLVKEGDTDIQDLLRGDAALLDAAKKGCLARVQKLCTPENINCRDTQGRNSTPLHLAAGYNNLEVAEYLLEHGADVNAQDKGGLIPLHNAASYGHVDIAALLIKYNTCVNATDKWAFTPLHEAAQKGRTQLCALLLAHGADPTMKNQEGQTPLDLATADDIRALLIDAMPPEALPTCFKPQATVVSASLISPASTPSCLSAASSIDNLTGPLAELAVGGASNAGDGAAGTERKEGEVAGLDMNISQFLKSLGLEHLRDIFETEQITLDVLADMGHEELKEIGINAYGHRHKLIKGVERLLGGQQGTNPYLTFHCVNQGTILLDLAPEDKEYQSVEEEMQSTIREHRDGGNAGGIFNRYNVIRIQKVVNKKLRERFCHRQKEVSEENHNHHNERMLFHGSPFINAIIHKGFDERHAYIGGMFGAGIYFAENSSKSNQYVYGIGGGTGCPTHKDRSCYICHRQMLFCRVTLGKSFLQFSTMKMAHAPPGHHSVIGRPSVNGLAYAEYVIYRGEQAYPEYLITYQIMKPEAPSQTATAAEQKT
Measurement protocol: Modified TNKS1 Assay 2 (auto-parsylation, [3H]-NAD+ SPA)
Format: biochemical
Measurement setup: 6 nM TNKS1, 96 well
Documented IC50 across a set of compounds
Your answer is read as nM, so omit the unit and give the number.

Task item: Could you tell me which IC50 is on file for CN(C)CCNC(=O)c1nc[nH]c1C(=O)Nc1ccc(NC(=O)c2ccc(F)cc2)c(F)c1 ?
Reply: 990

Task item: Could you tell me which IC50 is on file for CC(CNC(=O)c1[nH]cnc1C(=O)Nc1ccc(NC(=O)c2ccccc2Cl)cc1)N1CCCCC1 (stereo not drawn) ?
Reply: 10

Task item: Could you tell me which IC50 is on file for O=C(Nc1ccc(NC(=O)c2nc[nH]c2C(=O)N[C@H]2CCNC2)cc1)c1ccc(F)cc1Cl ?
Reply: 60

Next:
Task item: Could you tell me which IC50 is on file for CNC(=O)c1nc[nH]c1C(=O)Nc1ccc(NC(=O)c2ccccc2C)cc1 ?
Reply: 1800

Task item: Could you tell me which IC50 is on file for O=C(Nc1ccc(NC(=O)c2nc[nH]c2C(=O)NCCN2CCCC2)cc1)c1ccc(F)cc1 ?
Reply: 50

Task item: Could you tell me which IC50 is on file for CNC(=O)c1nc[nH]c1C(=O)Nc1ccc(NC(=O)c2c(F)cc(F)cc2Cl)cc1 ?
Reply: 80

====

Assayed target: TNKS2 (Homo sapiens)
Measurement protocol: Modified TNKS2 Assay 2 (auto-parsylation, [3H]-NAD+ SPA)
Format: biochemical
Measurement setup: 6 nM TNKS2, 96 well
pIC50: −log10 of the molar value.
Documented pIC50 across a set of compounds

Task item: Could you tell me which pIC50 is on file for CNC(=O)c1nc[nH]c1C(=O)Nc1ccc(NC(=O)c2ccc(F)c(Cl)c2)cc1 [Example 340] ?
Reply: < 5.00

Task item: Could you tell me which pIC50 is on file for COC(=O)c1nc[nH]c1C(=O)Nc1ccc(NC(=O)c2ccc(F)cc2)c(OC)c1 [Example 102] ?
Reply: < 5.00

Task item: Could you tell me which pIC50 is on file for CNC(=O)c1nc[nH]c1C(=O)Nc1ccc(NC(=O)c2ccc(OC(F)(F)F)cc2F)cc1 [Example 253] ?
Reply: < 5.00

Task item: Could you tell me which pIC50 is on file for O=C(Nc1ccc(NC(=O)c2[nH]cnc2C(=O)NCCC2CCCC2)cc1)c1cc(F)c(F)cc1Cl [Example 48] ?
Reply: < 5.00

Task item: Could you tell me which pIC50 is on file for CNC(=O)c1nc[nH]c1C(=O)Nc1ccc(NC(=O)c2ccon2)cc1 [Example 376] ?
Reply: < 5.00

Attention now turns to another entry.
Task item: Could you tell me which pIC50 is on file for CNC(=O)c1[nH]c(C(C)C)nc1C(=O)Nc1ccc(NC(=O)c2ccc(F)cc2Cl)cc1 [Example 106] ?
Reply: < 5.00

====

Assayed target: UniProtKB Q9H2K2
Sequence (Q9H2K2 1-1166): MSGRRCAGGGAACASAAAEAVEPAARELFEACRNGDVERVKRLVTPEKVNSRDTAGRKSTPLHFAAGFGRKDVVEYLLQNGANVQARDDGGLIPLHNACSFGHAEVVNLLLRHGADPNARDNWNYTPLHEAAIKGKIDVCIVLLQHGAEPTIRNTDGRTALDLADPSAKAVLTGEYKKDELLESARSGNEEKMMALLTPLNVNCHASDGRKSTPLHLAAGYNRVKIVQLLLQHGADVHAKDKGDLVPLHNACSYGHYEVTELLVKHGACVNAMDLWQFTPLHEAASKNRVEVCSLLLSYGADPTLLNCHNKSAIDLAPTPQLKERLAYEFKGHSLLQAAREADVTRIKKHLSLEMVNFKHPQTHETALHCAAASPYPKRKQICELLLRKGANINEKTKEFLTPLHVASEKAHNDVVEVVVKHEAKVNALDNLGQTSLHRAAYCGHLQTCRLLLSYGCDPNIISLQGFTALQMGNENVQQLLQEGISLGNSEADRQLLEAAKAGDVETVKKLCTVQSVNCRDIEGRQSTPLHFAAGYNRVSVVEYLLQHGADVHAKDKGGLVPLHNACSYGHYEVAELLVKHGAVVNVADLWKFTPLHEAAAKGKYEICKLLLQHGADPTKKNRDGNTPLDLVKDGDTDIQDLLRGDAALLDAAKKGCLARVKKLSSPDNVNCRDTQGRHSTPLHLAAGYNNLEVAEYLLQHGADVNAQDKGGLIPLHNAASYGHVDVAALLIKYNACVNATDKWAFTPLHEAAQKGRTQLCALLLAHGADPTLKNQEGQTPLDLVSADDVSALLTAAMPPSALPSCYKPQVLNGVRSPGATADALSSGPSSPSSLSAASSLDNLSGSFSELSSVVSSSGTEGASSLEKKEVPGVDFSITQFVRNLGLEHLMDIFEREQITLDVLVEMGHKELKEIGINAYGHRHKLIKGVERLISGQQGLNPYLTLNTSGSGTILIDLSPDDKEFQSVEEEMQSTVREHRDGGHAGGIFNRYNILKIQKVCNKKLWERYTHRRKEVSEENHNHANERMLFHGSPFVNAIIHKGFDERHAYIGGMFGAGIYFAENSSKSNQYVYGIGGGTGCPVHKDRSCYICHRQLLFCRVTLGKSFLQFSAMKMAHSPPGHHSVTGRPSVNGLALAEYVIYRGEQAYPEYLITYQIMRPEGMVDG
Measurement protocol: Modified TNKS2 Assay 3 (BPS kit #80578, biotin-NAD+, 96 well)
Type: biochemical
Measurement setup: human TNKS2, BPS kit #80578, 96 well
pIC50: −log10 of the molar value.
Label scheme for pIC50: lower than 8 is 0.0, 8 and above is 1.0.

Task item: Please tell me: is the molecule CC(C)[C@@H](C)NC(=O)c1[nH]cnc1C(=O)Nc1ccc(NC(=O)c2ccc(F)cc2Cl)cc1 at or over 8 in terms of pIC50?
Reply: 0.0

Task item: Please tell me: is the molecule CCN1CCC[C@H]1CNC(=O)c1nc[nH]c1C(=O)Nc1ccc(NC(=O)c2ccc(F)cc2Cl)cc1 at or over 8 in terms of pIC50?
Reply: 1.0

Task item: Please tell me: is the molecule CC1CCCCN1CCNC(=O)c1[nH]cnc1C(=O)Nc1ccc(NC(=O)c2ccc(F)cc2Cl)cc1 (stereo not shown) at or over 8 in terms of pIC50?
Reply: 1.0

Task item: Please tell me: is the molecule CCc1nc(C(=O)Nc2ccc(NC(=O)c3ccc(F)cc3Cl)cc2)c(C(=O)NCCN(C)C)[nH]1 at or over 8 in terms of pIC50?
Reply: 0.0

Task item: Please tell me: is the molecule O=C(Nc1ccc(NC(=O)c2nc[nH]c2C(=O)NCCN2CCC(F)CC2)cc1)c1ccc(F)cc1Cl at or over 8 in terms of pIC50?
Reply: 0.0

Task item: Please tell me: is the molecule O=C(Nc1ccc(NC(=O)c2[nH]cnc2C(=O)NC2CC2)cc1)c1ccc(F)cc1Cl at or over 8 in terms of pIC50?
Reply: 0.0

Task item: Please tell me: is the molecule O=C(Nc1ccc(NC(=O)c2nc[nH]c2C(=O)N2CCC2)cc1)c1ccc(F)cc1Cl at or over 8 in terms of pIC50?
Reply: 0.0

Task item: Please tell me: is the molecule O=C(Nc1ccc(NC(=O)c2nc[nH]c2C(=O)NCCN2CCCC(F)(F)C2)cc1)c1ccc(F)cc1Cl at or over 8 in terms of pIC50?
Reply: 0.0

Read the next record carefully.
Task item: Please tell me: is the molecule O=C(Nc1ccc(NC(=O)c2nc[nH]c2C(=O)NCCN2CCC[C@H](O)C2)cc1)c1ccc(F)cc1Cl at or over 8 in terms of pIC50?
Reply: 1.0
